The reported numbers originate from patent US20220313701A1.

Below is a list of entries, each paired with its recorded pIC50 value.
MEASURED_ON: full length human TREX1 (Homo sapiens)
Construct: N-terminally His-Tev tagged full length human TREX1; His-Tev (His tag with TEV site) (N)
Sequence (Q9NSU2 1-314): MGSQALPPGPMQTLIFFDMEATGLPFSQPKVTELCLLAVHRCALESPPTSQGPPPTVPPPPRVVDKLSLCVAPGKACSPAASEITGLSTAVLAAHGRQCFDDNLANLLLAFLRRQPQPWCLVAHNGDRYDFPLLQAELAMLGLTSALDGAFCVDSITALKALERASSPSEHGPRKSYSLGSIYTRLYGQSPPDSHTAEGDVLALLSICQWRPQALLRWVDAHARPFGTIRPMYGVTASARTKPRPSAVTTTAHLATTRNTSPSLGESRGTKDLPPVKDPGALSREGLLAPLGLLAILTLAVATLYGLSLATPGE
METHOD_NOTES: TREX1 Biochemical Assay (fluorescence assay, degradation of dsDNA substrate)
MEASUREMENT_PARAMETERS: 150 pM TREX1, 60 nM dsDNA substrate, 25 minutes at room temperature
pIC50: −log10 of the molar value.

INSERT INTO results (molecule, measurement) VALUES
  ('COc1cc(N2CCC(O)(c3ccc(F)cc3)CC2)ncn1 [Example 85]', '5.00 to 6.00'),
  ('Cc1nn(C)cc1-c1cccc(N2CCC(O)(c3ccc(F)c(F)c3)CC2)n1 [Example 42]', '5.00 to 6.00'),
  ('OC1(c2ccc(F)cc2)CCN(c2cncc(Cl)n2)CC1 [Example 84]', '5.00 to 6.00'),
  ('Cc1nn(C)cc1-c1cc(C(N)=O)cc(N2CCC(O)(c3ccc(F)c(F)c3)CC2)n1 [Example 39]', '> 7.00'),
  ('Cc1ncc(-c2cnn(C)c2)nc1N1CCC(O)(c2ccc(F)c(F)c2)CC1 [Example 89]', '5.00 to 6.00'),
  ('Cc1nn(C)cc1-c1cncc(N2CC[C@@](O)(c3ccc(F)c(F)c3)C[C@@H]2C)n1 (racemic) [Example 102]', '5.00 to 6.00'),
  ('Cc1nn(C)cc1-c1nc(N2CCC(O)(c3ccc(F)c(F)c3)CC2)sc1C(N)=O [Example 98]', '6.00 to 7.00'),
  ('OC1(c2ccc(F)cc2)CCN(c2cncc(-c3ccccc3C(F)(F)F)n2)CC1 [Example 31]', '5.00 to 6.00');

Request: pIC50, test system full length human TREX1 (Homo sapiens), entry OC1(c2ccccn2)CCN(c2cncc(-n3cccn3)n2)CC1 [Example 74]
< 5.00

# iterate: Cc1ccc(-c2cncc(N3CCC(O)(c4ccc(F)cc4)CC3)n2)cc1 [Example 34]
5.00 to 6.00

What about OC1(c2cccnc2)CCN(c2cncc(-n3cccn3)n2)CC1 [Example 75] ?
< 5.00

Now the molecule Cc1nn(C)cc1-c1cc(N2CCC(O)(c3ccc(F)c(F)c3)CC2)ncn1 [Example 58]
> 7.00

Another molecule: Cc1cnn(-c2cncc(N3CCC(O)(c4ccc(F)cc4)CC3)n2)c1 [Example 72]
5.00 to 6.00

How about this molecule: Cc1nc(-c2cn(C)nc2-c2ccccc2)cc(N2CCC(O)(c3ccc(F)c(F)c3)CC2)n1 [Example 100]
6.00 to 7.00

Now consider N#Cc1ccc(-c2cncc(N3CCC(O)(c4ccc(F)cc4)CC3)n2)cc1 [Example 30] and answer again.
5.00 to 6.00

Can you handle Cc1nc(N2CCC(O)(c3ccc(F)c(F)c3)CC2)cc(-n2c(C)cnc2-c2ccccn2)n1 [Example 107] next?
5.00 to 6.00

Again, but for Cc1nn(C)cc1-c1cc(C(F)(F)F)cc(N2CCC(O)(c3ccc(F)c(F)c3)CC2)n1 [Example 46]
6.00 to 7.00
